Let's look at some compounds and their measured growth.
# System: SNB-19 CNS
# test_method_notes: NCI-60 one-dose screen, 48 h (100 = growth as untreated, 0 = no growth, -100 = all killed)
# condition_set: 10 µM unless noted
The panel holds about 83,000 compounds, 20% with a hit somewhere; the sample as a whole holds those more often.

compound | growth (%)
O=S(=O)(NCCCNc1nccc(-c2c(-c3ccc(F)c(O)c3)nc3sccn23)n1)c1ccc(F)cc1 | 19.7
COc1cccc(-c2nc3occn3c2-c2ccnc(NCCCNS(=O)(=O)c3cccc(F)c3)n2)c1 | 109
COc1ccc(CNCCN2C(=O)c3ccc4c5c(ccc(c35)C2=O)C(=O)N(CCNCc2ccc(OC)cc2)C4=O)cc1 | -90.9
Fc1ccc(C2CC(c3cccc(Nc4ccncc4)c3)=NN2c2ccc(Cl)cc2)cc1 (configuration not stated) | 87.5
C#CC(=O)Nc1cccc(Nc2nc3c(c(NCc4ccccc4)n2)CCCC3)c1 | -79.4
CC(O)(CO)c1ccccc1 (configuration not stated) | 98.3
CS(=O)(=O)c1ccc(-c2cc(-c3nnc(SCC(=O)Nc4ccc(C(=O)/C=C/c5ccc(Cl)cc5)cc4)n3-c3ccccc3)c3ccccc3n2)cc1 | 85.2
Cc1cn(-c2cc(C(=O)Nc3cccc(C#Cc4cccc5[nH]nc(N)c45)c3)cc(C(F)(F)F)c2)cn1 | 76.2
COc1cc(C(=O)/C=C/c2c(C)n([O-])c3ccc(Cl)cc3[n+]2=O)cc(OC)c1OC | 99.8
COc1ccc(/C=C(/c2ccccc2)[N+](=O)[O-])cc1 | -19
Cc1cccc(Oc2ccc(Nc3ncnc4ccc(NC(=O)CN(C)C)cc34)cc2Cl)c1 | 59.9
COc1ccc(OC)c(/C=C/[C@H]2O[C@@H](C)[C@H](O)[C@@H]2O)c1 | 99.4
NC(=O)c1cccc(-c2ccccc2N2CCCCC2)c1 | 93
NC(=S)N/N=C/c1ccc(OC(=O)COc2cc(Cl)c(Cl)cc2Cl)cn1 | 91.6
CCOC(=O)c1ccc(Nc2ccnc(SCC(=O)c3ccc(C#N)cc3)n2)cc1 | 89.9
COc1ccccc1N1CCN(C(=O)c2ccc3nc(NC(=O)c4ccc(NCCc5ccccc5)c([N+](=O)[O-])c4)sc3c2)CC1 | 95.2
COc1ccc2c(/C=C3/C(=O)NC(=S)NC3C)cc(=O)oc2c1 (configuration not stated) | 102
CCCCCCCC(=O)Nc1nc2[nH]c(CN3CCN(Cc4cccc(I)c4)CC3)c(CN3CCN(Cc4cccc(I)c4)CC3)c2c(=O)[nH]1 | -87.5
CC(C)Cc1ccc(C(C)C(=O)NCc2c[nH]c3ccc(Cl)cc23)cc1 (configuration not stated) | 96.2
Cc1ccc2[nH]c(=S)n(-c3ccc(S(=O)(=O)Nc4ccc(Cl)nn4)cc3)c(=O)c2c1 | 97.5
[2H]C1([2H])NC([2H])([2H])C([2H])([2H])N(c2ccc(Nc3ncc4cc(C(=O)N(C)C)n(C5CCCC5)c4n3)nc2)C1([2H])[2H] | 64.3
Cc1ccc(-c2csc(/N=C3\C(=O)Nc4ccccc43)n2)cc1 | 22.8
O=C(O)CCCCCCCCCCCCCCC(=O)O | 99.1
O=S(=O)(c1ccc(N/N=C\c2ccccc2)cc1)c1ccc(N/N=C/c2ccccc2)cc1 | 81.4
CC(=O)NCCCS(=O)(=O)O | 103
FC(F)(F)Oc1cccc(-c2cc(NCCCCCCNc3cc(-c4cccc(OC(F)(F)F)c4)nc4ccc(N5CCCC5)cc34)c3cc(N4CCCC4)ccc3n2)c1 | -68.3
O=C1Nc2ccccc2/C1=N/c1nc(-c2ccc(Cl)cc2)cs1 | 75.1
COc1ccc(/C=N/C2=C(C#N)C(c3ccccc3[N+](=O)[O-])c3ccc4ccccc4c3O2)cc1 (configuration not stated) | 96.6
C[C@]12C[C@H]1CC[C@]1(C)[C@@H]2CC[C@@]23C[C@H](CC[C@H]21)[C@@](O)(CO)C3 | 95.4
COc1ccc(-c2nc(SC(C)C)nc(NNC(N)=O)c2C#N)cc1 | 89
CC(=O)OC1CCC2(C)C(CCC3C4CC=C(C(C)=O)C4(C)OC(=O)CC32)C1 (configuration not stated) | 94.6
CCCCCCCCCCCCCCCC(=O)OC[C@@]1(O)C[C@@]23CC[C@@H]4C(C)(C)[C@H](O)CC[C@@]4(C)[C@@H]2CC[C@H]1C3 | 96.7
C=Cc1cc[n+](CCCCCCCCCCCC)cc1 | 103
O=C(Nc1cccc(C2=NCCN2)c1)c1ccc(OCCCOc2ccc(C(=O)Nc3cccc(C4=NCCN4)c3)cc2)cc1 | 14.9
O=C1CCCCCCCCC(O)C(O)CCCC(c2cccs2)O1 (configuration not stated) | 87.1
CNC(=O)NCC1OC(n2cnc3c(NC(=O)Nc4ccccc4)ncnc32)C(O[Si](C)(C)C(C)(C)C)C1O[Si](C)(C)C(C)(C)C (configuration not stated) | 76.1
COc1ccc(C2CC(c3cccc(Nc4ccncc4)c3)=NN2c2cc(Cl)cc(Cl)c2)cc1 (configuration not stated) | 91

###

# Tested on: M14 melanoma
# test_method_notes: NCI-60 one-dose screen, 48 h (100 = growth as untreated, 0 = no growth, -100 = all killed)
# condition_set: 10 µM unless noted
About 83,000 compounds went through this panel and 20% of them were active in at least one assay; those are over-represented in the sample as a whole.
Classification by growth | ranges: class A: < -30%; class B: ≥ -30% and < 80%; class C: ≥ 80%

molecule | assigned_label
COc1cc(CCNc2nc3cc(N)cc(N)c3nc2-c2ccccc2)cc(OC)c1 | class A
Cc1nc2sc(C(=O)Nc3cccc(Br)c3)c(N)c2cc1C(=O)c1ccc(C(F)(F)F)cc1 | class B
Clc1ccc(C2CC(c3cccc(Nc4ccncc4)c3)=NN2c2ccccc2)cc1 (stereo not given) | class A
CN1CCN(c2cc(F)c(NC3=C(Cl)C(=O)c4ncccc4C3=O)c(F)c2)CC1 | class A
Nc1nnc(C(=O)c2cnc3n(c2=O)CCCCC3)s1 | class C
CS(=O)(=O)c1ccc(-c2cc3c(oc2=O)-c2ccccc2OC3O)cc1 (stereo not given) | class C
CC1(C)CN(Cc2ccccc2)CCN1Cc1ccccc1 | class C
Cc1c2c(cc[n+]1Cc1ccccc1)c1ccc(OCC3CCCCC3)cc1n2CC1CCCCC1 | class A
Cc1n[nH]c(C)c1-c1c(C)n[nH]c1C | class B

###

# Test system: MOLT-4 leukemia
# test_method_notes: NCI-60 one-dose screen, 48 h (100 = growth as untreated, 0 = no growth, -100 = all killed)
# condition_set: 10 µM unless noted
# Method: Growth inhibition of the MOLT-4 human tumor cell line is measured as a screen for anti-cancer activity. Cells are grown in 96 well plates and exposed to the test compound for 48 hours. Compounds are tested at a single concentration, which is 10^-5 M for most compounds. The reported endpoint is percent growth (GI% or GIPRCNT), where numbers from 0 - 100% represent growth inhibition, and numbers from -100% - 0 represent cell death. For example, a value of 40 represents 60% growth inhibition. […]
The panel holds about 83,000 compounds, 20% with a hit somewhere; the sample as a whole holds those more often.
# maps each entry to its growth
reported_metric: growth (%)

compound | value_observed
C#CCNC(=O)[C@H](Cc1ccccc1)NC(=O)[C@]12CC[C@@H](C(=C)C)[C@@H]1[C@H]1CC[C@@H]3[C@@]4(C)Cc5c([nH]c6ccccc56)C(C)(C)[C@@H]4CC[C@@]3(C)[C@]1(C)CC2 | 93.7
CN(Cc1ccccc1)c1nc(Cl)c(C2CC(c3ccc(Cl)cc3)=Cc3[nH][nH]c(=O)c32)s1 (stereo not drawn) | 96.3
CCCCCCN(C)Cc1ccc(OCCOc2ccc(CN(C)CCCCCC)cc2)cc1 | -4.95
CN1CCN(Cc2ccc(NC(=O)c3cncc(C#Cc4cnccc4C(F)(F)F)c3)cc2C(F)(F)F)CC1 | 45.7
O=C(N/N=C/c1cccnc1)c1ccccc1Nc1cccc(C(F)(F)F)c1 | 62.7
O=C1Nc2ccccc2/C1=N/c1nc(-c2ccc(Cl)cc2)cs1 | 25
CN(C)C(=O)c1cc2cnc(Nc3ccc(-c4csc5c(=O)cc(N6CCOCC6)oc45)cc3)nc2n1C1CCCC1 | -32
COc1cc2ncnc(Nc3ccc(C(=O)/C=C/c4ccc(C(F)(F)F)cc4F)cc3)c2cc1OC | 68.3

###

# reported growth; entries follow
# System: OVCAR-5 ovarian
# test_method_notes: NCI-60 one-dose screen, 48 h (100 = growth as untreated, 0 = no growth, -100 = all killed)
# condition_set: 10 µM unless noted
This is part of a sample that, as a whole, favours compounds with a hit. Of some 83,000 tested, about 20% had one in any assay.

compound | growth [%]
COc1ccccc1/C=C1\Oc2cc(OCCCN3CCCC3)ccc2C1=O | 84.2
CCCCCCCCCCCC(=O)C(CCCCCCCCCC)C(=O)Nc1ccccc1 (stereo unspecified) | 101
CCN(CCNc1cc(OC)cc2cccnc12)CCc1ccccc1 | 93.9
CCCOc1nc(SCCC)nc2c1cnn2-c1ccccc1 | 89.2
CC1=CC2(C)/C=C(C)/C=C\CC(O)/C=C3/C=CC(=C4C(=O)OC2(CC1C)C4=O)OC3 (stereo unspecified) | -57.9
O=C(N/N=C/c1ccncc1)c1ccccc1Nc1cccc(C(F)(F)F)c1 | 89.5
Cc1[nH]n(C(=O)c2ccncc2)c(=O)c1N=Nc1ccc(F)c(Cl)c1 | 114
CN1CCN(C(=O)[C@]2(C)CC[C@]3(C)CC[C@]4(C)C(=CC(=O)[C@@H]5[C@@]6(C)CCC(=O)NC(C)(C)[C@@H]6CC[C@]54C)[C@@H]3C2)CC1 | 110
C=C(C)[C@@H]1CC[C@]2(CO)CC[C@]3(C)[C@H](CC[C@@H]4[C@@]5(C)CCCNC(C)(C)[C@@H]5CC[C@]43C)[C@@H]12 | 75
COc1cc(NCCN(CC(C)C)C2CCCC2)c2ncccc2c1 | 96.4
Cc1c(C(=O)NO)sc2ncnc(Nc3ccc(NC(=S)Nc4ccccc4)cc3)c12 | 103
CN1CCN(c2cc(F)c(NC3=C(Cl)C(=O)c4ncccc4C3=O)c(F)c2)CC1 | -59.8
COc1cc(NCCCN(CC(C)C)C2CCCC2)c2ncccc2c1 | 96.3
CCNC(=S)NNC(=O)c1cc2ccc1CCc1ccc(cc1)CC2 | 96.2
O=C1CCCN1c1cccc2cccnc12 | 109
CC(C)(C)CC(C)(C)Nc1c(-c2ccc3c(c2)OCO3)nc2cnccn12 | 91.2
Clc1nc(Nc2ccccc2)nc(Nc2ccccc2)n1 | 101
O=S(=O)(c1ccc(N/N=C\c2ccccc2)cc1)c1ccc(N/N=C/c2ccccc2)cc1 | 84.7
CC1(c2ccccc2)NC(=O)N(CC(=O)Nc2cccc(I)c2)C1=O (stereo unspecified) | 89.7
Nc1nnc2cc(Cl)ccc2n1 | 105
O=C(Nc1ccc2ncnc(Nc3ccc(Oc4cccc(F)c4)c(Cl)c3)c2c1)c1ccc(CNCCO)cc1 | 78.1
